Attribute: CC50
EXPERIMENTAL DETAILS: Cytotoxicity (CC50) in C8166 cells
Assay type: cell-based
CONDITION DETAILS: human, C8166 cells
RECORDED METRIC: CC50

- LINE NOTATION: "CN1C(=O)C2(CCCCC2)NNC1=S"
  RECORDED METRIC: "CC50"
  RESULT: "488 µM"
- LINE NOTATION: "CN1C(=O)C(C)(C)NNC1=S"
  RECORDED METRIC: "CC50"
  RESULT: "896 µM"

###

EXPERIMENTAL DETAILS: Microdose study of 14C-AlphaHGA in healthy volunteers, plasma pharmacokinetics (AMS)
Type: in vivo, human
CONDITION DETAILS: plasma, Period 2, Max
Structures can show the parent of a compound that is named as a salt.
RECORDED METRIC: Cmax (nM)

- COMPOUND: "NC(=O)C(N)O (stereo not drawn) [AlphaHGA, α-Hydroxy-glycinamide hydrochloride]"
  RESULT: 0.076

Source listed as patent US20080076824A1.
